The reader will find reported inhibition at 10 µM values listed item by item below.
molecular target: Human TRPA1 expressing CHO cells (Homo sapiens, UniProt O75762); construct: expressed in transfected cells; host or cells: CHO cells (under G-418 selection); test: 45Calcium uptake assay: inhibition of AITC induced cellular uptake of radioactive calcium; assay type: cell-based; conditions: 10.0 μM test compound; AITC 30 μM; human TRPA1 CHO cells; read-out: Percentage inhibition at 10.0 μM
Sequence (O75762 whole entry): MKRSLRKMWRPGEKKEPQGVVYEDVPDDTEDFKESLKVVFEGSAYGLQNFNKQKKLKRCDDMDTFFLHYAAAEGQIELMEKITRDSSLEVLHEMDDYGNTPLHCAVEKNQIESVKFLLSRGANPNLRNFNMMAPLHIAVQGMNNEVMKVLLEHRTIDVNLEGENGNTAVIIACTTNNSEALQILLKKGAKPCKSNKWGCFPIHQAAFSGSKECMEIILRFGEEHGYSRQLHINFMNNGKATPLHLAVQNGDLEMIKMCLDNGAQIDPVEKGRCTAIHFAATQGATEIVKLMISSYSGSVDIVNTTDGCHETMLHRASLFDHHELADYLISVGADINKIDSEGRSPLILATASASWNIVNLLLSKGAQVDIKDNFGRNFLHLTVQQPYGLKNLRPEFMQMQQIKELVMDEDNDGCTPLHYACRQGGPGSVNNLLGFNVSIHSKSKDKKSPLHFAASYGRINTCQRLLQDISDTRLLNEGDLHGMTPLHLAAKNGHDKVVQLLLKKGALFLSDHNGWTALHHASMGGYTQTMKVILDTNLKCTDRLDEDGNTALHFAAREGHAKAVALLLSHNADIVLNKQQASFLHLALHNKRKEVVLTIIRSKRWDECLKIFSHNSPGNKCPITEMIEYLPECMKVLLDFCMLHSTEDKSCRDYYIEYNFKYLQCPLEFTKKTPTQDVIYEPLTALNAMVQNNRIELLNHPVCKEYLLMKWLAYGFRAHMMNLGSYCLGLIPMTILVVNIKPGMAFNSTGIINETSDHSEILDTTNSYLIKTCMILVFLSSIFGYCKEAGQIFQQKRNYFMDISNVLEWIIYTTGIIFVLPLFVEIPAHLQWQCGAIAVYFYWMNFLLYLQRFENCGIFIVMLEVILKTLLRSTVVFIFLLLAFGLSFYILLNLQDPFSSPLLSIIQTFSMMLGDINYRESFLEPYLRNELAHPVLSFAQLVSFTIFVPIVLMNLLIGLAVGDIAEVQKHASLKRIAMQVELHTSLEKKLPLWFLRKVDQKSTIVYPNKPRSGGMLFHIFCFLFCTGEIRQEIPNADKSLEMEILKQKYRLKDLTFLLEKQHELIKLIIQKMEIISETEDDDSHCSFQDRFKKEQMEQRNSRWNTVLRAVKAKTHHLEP

| compound | inhibition at 10 µM |
| --- | --- |
| Cc1cc2nc(NC(=O)Cc3cccc4c3c(=O)n(C)c(=O)n4C)sc2cc1C | 95.5% |
| Cn1c(=O)c2c(CC(=O)Nc3nc(-c4cc(F)c(OCC5CC5)c(F)c4)cs3)cccc2n(C)c1=O | 96.5% |
| Cn1c(=O)c2c(CC(=O)Nc3nc(-c4cc(Cl)cc(Cl)c4)cs3)cccc2n(C)c1=O | 100% |

Now consider the entry below.
Exam item: Quickly give me recorded inhibition at 10 µM for Cn1c(=O)c2c(CC(=O)Nc3nc4ccccc4s3)cccc2n(C)c1=O
Marked response: 30.5%
